test: NCI Yeast Anticancer Drug Screen. Data for the bub3 strain (AID 167); settings: S. cerevisiae bub3 mutant strain, at 50.0 µM, hits give high values
Compounds without any hit were thinned out: in the full panel of roughly 79,000, 15% have a hit.

- compound: "Cc1cc(=O)c2cc(N=Cc3ccc([N+](=O)[O-])o3)ccc2o1"
  growth inhibition, %: 6.1
- compound: "O=C1C(c2c[nH]c3ccccc23)=Nc2ccc(Br)cc21"
  growth inhibition, %: 90
- compound: "Cc1cc(NC(=S)SCc2ccc3c(c2)OCO3)ccc1Br"
  growth inhibition, %: 91.2
- compound: "COC(C)(C)[C@@H]1CCCN1C1=C(C)C(=O)OC1"
  growth inhibition, %: 46.6
- compound: "CSc1ccc(/C=C2\\CNC/C(=C\\c3ccc(SC)cc3)C2=O)cc1"
  growth inhibition, %: 35
- compound: "COc1cc(C)cc2c(-c3c(O)cc(O)c4c3C[C@H](C)N[C@H]4C)cc(-c3cc(-c4c(O)cc(O)c5c4C[C@H](C)N[C@H]5C)c4cc(C)cc(OC)c4c3O)c(O)c12"
  growth inhibition, %: -48.5
- compound: "CC1(C)CNCC(C)(OCc2ccccc2)C(=O)NC(C)(C)CNCC(C)(OCc2ccccc2)C(=O)N1 (stereo not drawn)"
  growth inhibition, %: -68.2
- compound: "CCCC/C=C1\\CCC(CN2CCOCC2)C1=O (stereo not drawn)"
  growth inhibition, %: 91.2
- compound: "O=C1c2ccccc2Cc2cc(O)ccc21"
  growth inhibition, %: 88.6
- compound: "Cn1cnc(=S)c2[nH]cnc21"
  growth inhibition, %: -8.5
- compound: "O=C(Nc1ccccc1)c1ccccc1O"
  growth inhibition, %: 86
- compound: "CC(=O)Nc1ccc(-c2nnc(SCC(=O)Nc3cccc(Cl)c3)o2)cc1"
  growth inhibition, %: 73.7
- compound: "CS(=O)(=O)OCCN(CCOS(C)(=O)=O)c1ccc(C=Nc2ccc(-c3csc(-c4ccc(Br)cc4)n3)cc2)cc1"
  growth inhibition, %: 74.8
- compound: "CC1(c2cccs2)C(C#N)(C#N)C1(C#N)C#N"
  growth inhibition, %: 95.5
- compound: "COc1ccc(-c2c3c(cc4cc5c(cc24)OCO5)C(=O)OC3)cc1OC"
  growth inhibition, %: 92.3
- compound: "CC(=O)Oc1ccccc1C(=O)/C=C/c1ccccc1"
  growth inhibition, %: 61
- compound: "CC(C)c1cccc(O)c1O"
  growth inhibition, %: 89.5
- compound: "CC(=O)Oc1c(C)cc([N+](=O)[O-])cc1[N+](=O)[O-]"
  growth inhibition, %: 99
- compound: "CCCCCCCCCCOC(=O)c1cc[n+](C)cc1"
  growth inhibition, %: -0.65
- compound: "O=[N+]([O-])C(=C(Nc1ccccc1)Nc1ccccc1)C(Cl)=C(Cl)Cl"
  growth inhibition, %: 91.5
- compound: "O=[N+]([O-])c1ccc(Sc2c3ccccc3nc3ccccc23)nc1"
  growth inhibition, %: 96.5
- compound: "CCOC(=O)c1c(O)c(C)c(=O)n2c1[nH]c1cc(C)c(C)cc12"
  growth inhibition, %: -43.9
- compound: "Cc1cccc(Cc2ccc(Cl)cc2)c1O"
  growth inhibition, %: 99.2

====

test: NCI Yeast Anticancer Drug Screen. Data for the sgs1 mgt1 strain (AID 161);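 further: 0% = growth of cultures given vehicle only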; conditions: S. cerevisiae sgs1 mgt1 strain, at 50.0 µM
This is part of a sample that, as a whole, favours compounds with a hit. Of some 79,000 tested, about 15% had one in any assay. The source made the active and inactive calls. Cut-off read from the data, not from the text of the source: active = growth inhibition above about 70%; inactive = the rest.
Labels: yes (active), no (inactive)

- compound: "CCOC(=O)C1C(c2cccc(OC)c2O)c2cc3c(cc2OC1(C)N1CCCC1)OCO3 (centres undefined)"
  discreteLabel: "no"
- compound: "CC1=C(C#N)C(=O)N(C)C(=O)C1(Cl)Cl"
  discreteLabel: "no"
- compound: "CS/C(=N\\C(=S)Nc1ccccc1)Nc1ccccc1"
  discreteLabel: "yes"
- compound: "Cc1ccc(S(=O)(=O)OCC(/C=N/NC(N)=O)OCOC(C)/C=N/NC(N)=O)cc1 (centres undefined)"
  discreteLabel: "no"
- compound: "Cn1nc(-c2ccccc2NC(=O)C(F)(F)F)c(=O)n(C)c1=S"
  discreteLabel: "no"
- compound: "CCc1cc2c(c3[nH]ccc13)[C@@H](C)C[C@H]2C"
  discreteLabel: "yes"
- compound: "CSc1cc(N)nc(N)n1"
  discreteLabel: "yes"
- compound: "CC(=O)Nc1ccc(N=Cc2cc(Cl)cc(Cl)c2O)cc1"
  discreteLabel: "yes"
- compound: "COC(=O)C1(C)CC2C(C)(CCC3(C)C4=CC=C5C(=CC(=O)C(O)=C5C)C4(C)CCC23C)CC1O (centres undefined)"
  discreteLabel: "yes"
- compound: "Clc1ccc(/C(=C/c2ccccc2)Cn2ccnc2)cc1"
  discreteLabel: "yes"
- compound: "Cc1ccccc1C(CC(=O)O)C(C)c1ccccc1 (centres undefined)"
  discreteLabel: "yes"
- compound: "CCCCCCCCN(CCCCCCCC)CC(O)c1cc(-c2ccc(Cl)cc2)nc2c(Cl)cccc12 (centres undefined)"
  discreteLabel: "no"
- compound: "COc1cccc2c1C(=O)c1c(O)c3c(c(O)c1C2=O)C[C@@](O)(/C(C)=N/NC(N)=S)C[C@@H]3OC1CC(N)C(O)C(C)O1 (some centres undefined)"
  discreteLabel: "yes"
- compound: "Cn1c(=O)ccc2cc(C(=O)c3ccccc3)ccc21"
  discreteLabel: "no"
- compound: "COc1ccc2c(c1)CC[C@@H]1C2CC[C@]2(C)OC(=O)CCC12 (some centres undefined)"
  discreteLabel: "yes"
- compound: "O=C(O)CCc1ccc2ccccc2c1"
  discreteLabel: "no"
- compound: "CCN(CC)C1Oc2cc3c(cc2C(c2ccc(OC)cc2)C1C)OCO3 (centres undefined)"
  discreteLabel: "yes"
- compound: "Oc1ccc2c(c1)Cc1ccccc1-2"
  discreteLabel: "no"
- compound: "CC1CCN(c2cc(-c3cc4ccccc4o3)oc(=O)c2C#N)CC1"
  discreteLabel: "no"
- compound: "Oc1ccccc1/C=N\\N=C\\c1ccccc1O"
  discreteLabel: "no"
- compound: "c1ccc(C2CC(c3ccc4ccccc4c3)=Nc3ccccc3S2)cc1 (centres undefined)"
  discreteLabel: "yes"
- compound: "CCOC(=O)/C=C1/C(=O)OC2C1OC1OC(C)(C)OC12 (centres undefined)"
  discreteLabel: "no"
- compound: "Cc1c(C)c(O)c2c(c1O)C(=O)C=C(Cl)C2=O"
  discreteLabel: "yes"
- compound: "Cc1cnc2cccc(Cl)c2c1Cl"
  discreteLabel: "no"

====

test: NCI Yeast Anticancer Drug Screen. Data for the sgs1 mgt1 strain (AID 161);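 further: 0% = growth of cultures given vehicle only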; settings: S. cerevisiae sgs1 mgt1 strain, at 50.0 µM, hits give high values
About 79,000 compounds went through this panel and 15% of them were active in at least one assay; those are over-represented in the sample as a whole.
# growth inhibition per record follows
valueType: growth inhibition (%)

- molecule: "COc1ccc2ccnc(Cc3ccc(OCc4ccccc4)c(OC)c3)c2c1"
  valueType: "growth inhibition"
  testValue: 89.7
- molecule: "CC1(c2cccs2)C(C#N)(C#N)C1(C#N)C#N"
  valueType: "growth inhibition"
  testValue: 96
- molecule: "O=C(O)COc1c(Cl)c(Cl)c(Cl)c(Cl)c1Cl.[Cu+2]"
  valueType: "growth inhibition"
  testValue: 92.7
- molecule: "Nc1c(C(=O)Nc2ccccc2)[n+]([O-])c2ccccc2[n+]1[O-]"
  valueType: "growth inhibition"
  testValue: 98
- molecule: "CCN(CC)CCC(=O)NC1c2ccc(Cl)cc2Oc2c(C)cccc21 (stereo unspecified)"
  valueType: "growth inhibition"
  testValue: 40.6
- molecule: "COC(=O)C(=O)C(/C=N/C(=S)NCCc1ccc(OC)c(OC)c1)=C(/O)c1ccc([N+](=O)[O-])cc1"
  valueType: "growth inhibition"
  testValue: 19.4
- molecule: "O=C(Oc1ccc(Cl)cc1)Oc1ccc(Cl)cc1"
  valueType: "growth inhibition"
  testValue: 14.3
- molecule: "Cc1nc(Cl)c(C#N)c(C)c1[N+](=O)[O-]"
  valueType: "growth inhibition"
  testValue: 70.3
- molecule: "C=CC[C@]1(C(C)Cc2ccc(OC)c(OC)c2)C[C@@H](OC)C=CC1=O (stereo partly specified)"
  valueType: "growth inhibition"
  testValue: 88.8
- molecule: "Cc1cc(NCCCCCCCNc2cc(C)nc3cc(N)ccc23)c2ccc(N)cc2n1"
  valueType: "growth inhibition"
  testValue: 86
- molecule: "C=CCOC(=O)SC(=S)OCN(C)C"
  valueType: "growth inhibition"
  testValue: 99.4

====

test: NCI Yeast Anticancer Drug Screen. Data for the mec2-1 strain (AID 157); conditions: S. cerevisiae mec2-1 strain, at 50.0 µM
About 79,000 compounds went through this panel and 15% of them were active in at least one assay; those are over-represented in the sample as a whole. The source made the active and inactive calls. Rule as the data show it: active = growth inhibition above about 70%; inactive = the rest.
Labels: active, inactive

- compound: "CC(C)OC1=C(Cl)C(=O)c2c(cccc2[N+](=O)[O-])C1=O"
  discreteLabel: "active"
- compound: "CS[C@H]1CC[C@H]2[C@@H]3CCc4cc(O)ccc4[C@H]3CC[C@]12C"
  discreteLabel: "inactive"
- compound: "C=C(Br)CN(CC)CC"
  discreteLabel: "inactive"
- compound: "Clc1nn2nnnc2c2ccccc12"
  discreteLabel: "active"
- compound: "O=C(O)Cc1cccc2c(=O)c3cccc([N+](=O)[O-])c3[nH]c12"
  discreteLabel: "inactive"
- compound: "CC(C)c1ccc(C(=O)C2CC2)cc1"
  discreteLabel: "inactive"
- compound: "O=C(Oc1c(Cl)cc(Cl)c(Cl)c1Cl)Oc1c(Cl)cc(Cl)c(Cl)c1Cl"
  discreteLabel: "inactive"
- compound: "Nc1cc(Br)c2cccnc2c1O"
  discreteLabel: "active"
- compound: "CC(C)(C)N1C(=O)C(Cl)(C#N)C1c1ccccc1 (stereo unspecified)"
  discreteLabel: "inactive"
- compound: "CCCCCCC[n+]1ccc(C(=O)c2ccccc2)cc1"
  discreteLabel: "active"
- compound: "CC(=O)OC1C(O)C(C)OC(OC(=O)C2CCC3C(C2)OC2(CC(OC(=O)/C=C/c4ccccc4)C(C)CO2)C32CO2)C1OC1OC(C)C(O)C(O)C1O (stereo unspecified)"
  discreteLabel: "active"

// data source = PubChem BioAssay (NCI)
